MEASURED METRIC: logP

Examples with answers:
Nc1ccc(Cc2nc3ccc(Cl)cc3[nH]2)cc1
3.2
Cc1ccc(-c2nc3ccccc3[nH]2)cc1
3.67

[P] Clc1ccc2nc(Cc3ccc(Br)cc3)[nH]c2c1
[Q] Cc1ccc(-c2nc3ncccc3[nH]2)cc1
Enquiry: Looking at P and Q , which one comes out lower in logP terms? Refer to your chosen item by its label in the answer.
Return: Q

[P] Fc1ccc(-c2nc3ncccc3[nH]2)cc1
[Q] CC(C)(C)c1ccc(-c2nc3ncccc3[nH]2)cc1
Enquiry: Looking at P and Q , which one comes out lower in logP terms? Refer to your chosen item by its label in the answer.
Return: P
(P: 2.52, Q: 4.82)
